activity at 100 µM values for the compounds below.
Tested on: MCF7 (breast cancer)
Test: ATP level assay (CellTiter-Glo), percent of control
Format: cell-based
Conditions: Homo sapiens, MCF7, 2 h; compound alone, 100 uM, two hour incubation, control DMSO; read-out: POC (percent of control) MCF7
attributeMeasured: activity at 100 µM (%)

>>> valuereported("COc1ncccc1CNS(=O)(=O)c1ccccc1")
127
>>> valuereported("CC(=O)n1cc(CNS(=O)(=O)c2ccc(Cl)cc2)c2ccccc21")
108
>>> valuereported("O=[N+]([O-])c1cccc(S(=O)(=O)NCc2c[nH]c3ccccc23)c1")
112
>>> valuereported("Cn1cc(CNS(=O)(=O)c2ccc(Cl)cc2)c2ccccc21")
105
>>> valuereported("Cc1ccc(S(=O)(=O)NCc2c[nH]c3ccccc23)cc1")
103
>>> valuereported("O=S(=O)(NCc1c[nH]c2ccccc12)c1ccc(C(F)(F)F)cc1")
82.9
>>> valuereported("Cc1cccc2[nH]cc(CNS(=O)(=O)c3ccccc3)c12")
107
>>> valuereported("O=S(=O)(NCc1c[nH]c2cccc(Br)c12)c1ccc(Cl)cc1")
82.9
>>> valuereported("Cc1ccc(S(=O)(=O)NCc2ccc3ncccc3c2)cc1")
113
>>> valuereported("Cc1cccc2[nH]cc(CNS(=O)(=O)c3ccc(Cl)cc3)c12")
37.4
>>> valuereported("O=S(=O)(NCc1c[nH]c2ccccc12)c1ccccc1")
105
>>> valuereported("Cc1ccc(S(=O)(=O)NCc2ccc3c(cnn3C)c2)cc1")
117
>>> valuereported("Cc1ccc(S(=O)(=O)NCc2c[nH]c3cccc(Br)c23)cc1")
86.4
>>> valuereported("O=S(=O)(NCc1cncnc1)c1ccc(Cl)cc1")
126
>>> valuereported("Cc1ccc(S(=O)(=O)NCc2coc(C)n2)cc1")
189
>>> valuereported("Cn1ncc2cc(CNS(=O)(=O)c3ccc(Cl)cc3)ccc21")
115
>>> valuereported("O=S(=O)(NCc1cncnc1)c1ccccc1")
148
>>> valuereported("Cc1ccc(S(=O)(=O)NCc2cnccn2)cc1")
123
>>> valuereported("O=S(=O)(NCc1ccco1)c1ccc(Cl)cc1")
138
>>> valuereported("COc1ncccc1CNS(=O)(=O)c1ccc(C)cc1")
97.3

Where do the numbers come from? From patent US20230266302A1.
